TARGET OF ASSAY: human orexin-2 receptor (Homo sapiens, UniProt O43614)
Sequence (O43614 whole entry): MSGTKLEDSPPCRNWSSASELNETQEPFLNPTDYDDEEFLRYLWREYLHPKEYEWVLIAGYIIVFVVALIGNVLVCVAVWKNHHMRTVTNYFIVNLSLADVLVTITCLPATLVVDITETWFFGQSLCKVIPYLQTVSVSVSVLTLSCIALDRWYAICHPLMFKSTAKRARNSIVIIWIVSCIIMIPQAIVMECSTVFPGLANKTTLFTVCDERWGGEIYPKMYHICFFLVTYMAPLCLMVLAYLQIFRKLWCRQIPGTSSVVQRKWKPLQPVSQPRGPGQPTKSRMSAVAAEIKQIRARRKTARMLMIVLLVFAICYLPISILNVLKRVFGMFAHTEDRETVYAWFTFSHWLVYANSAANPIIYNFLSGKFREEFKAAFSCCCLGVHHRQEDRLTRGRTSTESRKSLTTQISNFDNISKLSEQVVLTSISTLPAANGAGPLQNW
ASSAY DETAILS: FLIPR intracellular calcium assay, orexin receptor antagonistic activity (OX2)
MEASUREMENT CONDITIONS: CHO cells expressing human orexin-2 receptor; agonist 3 nM orexin-A; normalized to on-plate reference; * geomean n = 5, *2 geomean n = 2
RESULT TYPE: log10 IC50 (log10 of the value in nM)
Log scale reminder: IC50 in nM, then log10 taken.

> print(dat)
                                   compound  result.type  observed.value
1  COc1cccc(OC)c1C1O[C@H](C)C(=O)N1Cc1ccc(Oc2ccccc2)cc1 (some centres unmarked) [Example 51]   log10 IC50            1.40
2  CCOc1ccccc1C1OCC(=O)N1Cc1ccc(Cl)c(C(F)(F)F)c1 (centres unmarked) [Example 1]   log10 IC50            2.42
3  CCOc1ccccc1C1OCC(=O)N1Cc1ccc(C(F)(F)F)cc1F (centres unmarked) [Example 22]   log10 IC50            2.92

For the 2 compounds below, give their log10 IC50 values.
1. CCOc1ccccc1C1OCC(=O)N1Cc1ccc(F)cc1 (centres unmarked) [Example 25]
2. COc1cccc(C)c1C1OC(C)(C)C(=O)N1Cc1ccc(OC(F)(F)F)c(Cl)c1 (centres unmarked) [Example 83]

**Result**
1: 2.30; 2: 1.84
